Test system: TGFb/SMAD Signaling Pathway SBE reporter cell line
Assay: TGFb reporter assay (luciferase)
Type: cell-based
Conditions: 5-6 h preincubation, then TGFb, 18 h, luminescence
assay_endpoint: IC50

The cases that follow already have their IC50 on record.
- Cc1cccc(-c2nc(CNC3CCCCCC3)[nH]c2-c2ccc3ncnn3c2)n1: 10 to 100 nM
- Cc1cccc(-c2nc(CNc3cccc4c3CCC4N)[nH]c2-c2ccc3ncnn3c2)n1 (centres unmarked): 100 to 1000 nM
- Cc1cccc(-c2nc(C3CN(C(=O)OC(C)(C)C)C3)[nH]c2-c2ccc3ncnn3c2)n1: 100 to 1000 nM
- Cc1cccc(-c2nc(CNC3CCCC3)[nH]c2-c2ccc3ncnn3c2)n1: 10 to 100 nM
- Cc1cccc(-c2nc(CNCc3ccc4c(c3)OCO4)[nH]c2-c2ccc3ncnn3c2)n1: 100 to 1000 nM

Prompt line: Name the reported IC50 value associated with the compound Cc1cccc(-c2nc(CN3CCc4ccccc4C3)[nH]c2-c2ccn3ncnc3c2)n1
Response line: 100 to 1000 nM

Prompt line: Please answer likewise for Cc1cccc(-c2nc(CN[C@H]3CCCC[C@@H]3F)[nH]c2-c2ccc3ncnn3c2)n1
Response line: 100 to 1000 nM

Prompt line: Please answer likewise for Cc1cccc(-c2nc(CNCC3CC3)[nH]c2-c2ccc3ncnn3c2)n1
Response line: 100 to 1000 nM

====

Target: ALK5 (Homo sapiens, UniProt P36897)
Sequence (P36897 34-503): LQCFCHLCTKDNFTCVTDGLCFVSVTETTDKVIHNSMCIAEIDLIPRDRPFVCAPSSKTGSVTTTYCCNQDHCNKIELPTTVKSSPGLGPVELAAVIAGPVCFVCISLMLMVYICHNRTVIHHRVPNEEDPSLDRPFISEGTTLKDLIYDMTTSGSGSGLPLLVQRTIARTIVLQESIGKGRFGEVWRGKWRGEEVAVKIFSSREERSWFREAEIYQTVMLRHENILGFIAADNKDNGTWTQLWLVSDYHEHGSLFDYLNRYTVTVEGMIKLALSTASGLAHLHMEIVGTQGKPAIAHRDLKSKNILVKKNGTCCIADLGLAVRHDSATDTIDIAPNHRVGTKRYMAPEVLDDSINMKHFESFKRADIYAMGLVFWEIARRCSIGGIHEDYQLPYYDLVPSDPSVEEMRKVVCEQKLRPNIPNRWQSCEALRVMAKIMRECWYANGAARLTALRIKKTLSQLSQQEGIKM
pIC50: −log10 of the molar value.
assay_endpoint: pIC50

The cases that follow already have their pIC50 on record.
- Cc1cccc(-c2nc(CNC3CC3)[nH]c2-c2ccc3ncnn3c2)n1: 5.00 to 6.00
- Cc1cccc(-c2nc(CNC3CCc4ccccc43)[nH]c2-c2ccc3ncnn3c2)n1 (racemic): 6.00 to 7.00

Prompt line: Name the reported pIC50 value associated with the compound Cc1cccc(-c2nc(CN3CCCCC3)[nH]c2-c2ccn3ncnc3c2)n1
Response line: 5.00 to 6.00

Prompt line: Please answer likewise for Cc1cccc(-c2nc(CNCCc3ccnc4ccccc34)[nH]c2-c2ccc3ncnn3c2)n1
Response line: 6.00 to 7.00

Prompt line: Please answer likewise for Cc1cccc(-c2nc(CNC3CCC3)[nH]c2-c2ccc3ncnn3c2)n1
Response line: 5.00 to 6.00

Prompt line: Please answer likewise for CC(=O)NC1Cc2ccc(NCc3nc(-c4cccc(C)n4)c(-c4ccc5ncnn5c4)[nH]3)cc2C1 (centres unmarked)
Response line: 6.00 to 7.00

Prompt line: Please answer likewise for Cc1cccc(-c2nc(CNC3CCCC3)[nH]c2-c2ccc3ncnn3c2)n1
Response line: 6.00 to 7.00

Prompt line: Please answer likewise for Cc1cccc(-c2nc(CNCCc3cccc4ncccc34)[nH]c2-c2ccc3ncnn3c2)n1
Response line: 6.00 to 7.00

====

System: TGFb/SMAD Signaling Pathway SBE reporter cell line
Assay: TGFb reporter assay (luciferase)
Type: cell-based
Settings: 5-6 h preincubation, then TGFb, 18 h, luminescence
pIC50: −log10 of the molar value.
assay_endpoint: pIC50

- Cc1cccc(-c2nc(CNc3cccc4c3CCNC4)[nH]c2-c2ccc3ncnn3c2)n1: 6.00 to 7.00
- Cc1cccc(-c2nc(CN[C@@H]3c4ccccc4C[C@H]3O)[nH]c2-c2ccc3ncnn3c2)n1: 7.00 to 8.00
- Cc1cccc(-c2nc(CNCCc3ccnc4ccccc34)[nH]c2-c2ccc3ncnn3c2)n1: 7.00 to 8.00
- CC(=O)NC1Cc2ccc(NCc3nc(-c4cccc(C)n4)c(-c4ccc5ncnn5c4)[nH]3)cc2C1 (stereo not shown): 6.00 to 7.00
- Cc1cccc(-c2nc(CNc3ccc4c(c3)CNCC4)[nH]c2-c2ccc3ncnn3c2)n1: 6.00 to 7.00
- Cc1cccc(-c2nc(CNCc3cccc4ccccc34)[nH]c2-c2ccc3ncnn3c2)n1: 7.00 to 8.00

Prompt line: Any idea what pIC50 came out for Cc1cccc(-c2nc(CNc3cccc4c3CNCC4)[nH]c2-c2ccc3ncnn3c2)n1 on TGFb/SMAD Signaling Pathway SBE reporter cell line?
Response line: 6.00 to 7.00

Prompt line: Please answer likewise for Cc1cccc(-c2nc(CNCc3ccc4ccccc4c3)[nH]c2-c2ccc3ncnn3c2)n1
Response line: 6.00 to 7.00

Prompt line: Please answer likewise for Cc1cccc(-c2nc(CNC34CC(C3)C4)[nH]c2-c2ccc3ncnn3c2)n1
Response line: 7.00 to 8.00

Prompt line: Please answer likewise for Cc1cccc(-c2nc(CN[C@H]3c4ccccc4C[C@H]3O)[nH]c2-c2ccc3ncnn3c2)n1
Response line: 7.00 to 8.00

Prompt line: Please answer likewise for Cc1cccc(-c2nc(CNC3CCC3)[nH]c2-c2ccc3ncnn3c2)n1
Response line: 6.00 to 7.00

Prompt line: Please answer likewise for Cc1cccc(-c2nc(CNc3cncc(CN)c3)[nH]c2-c2ccc3ncnn3c2)n1
Response line: 6.00 to 7.00

Prompt line: Please answer likewise for Cc1cccc(-c2nc(CNC3CCOCC3)[nH]c2-c2ccc3ncnn3c2)n1
Response line: 7.00 to 8.00

Prompt line: Please answer likewise for Cc1cccc(-c2nc(CNc3cccc4c3C(N)CC4)[nH]c2-c2ccc3ncnn3c2)n1 (stereo not shown)
Response line: 6.00 to 7.00

Prompt line: Please answer likewise for Cc1cccc(-c2nc(CNc3cccc4c3CNC4)[nH]c2-c2ccc3ncnn3c2)n1
Response line: 6.00 to 7.00

Prompt line: Please answer likewise for Cc1cccc(-c2nc(CN[C@H]3c4ccccc4C[C@@H]3O)[nH]c2-c2ccc3ncnn3c2)n1
Response line: 7.00 to 8.00

====

The reader will find reported pIC50 values listed item by item below.
Test system: TGFb/SMAD Signaling Pathway SBE reporter cell line
Experiment: TGFb reporter assay (luciferase)
Assay type: cell-based
Conditions: 5-6 h preincubation, then TGFb, 18 h, luminescence
pIC50: −log10 of the molar value.

- Cc1cccc(-c2nc(CNC3CCCCC3C)[nH]c2-c2ccc3ncnn3c2)n1 (centres unmarked) [Compound 1.16]: 7.00 to 8.00
- Cc1cccc(-c2nc(C3CCNC3)[nH]c2-c2ccc3ncnn3c2)n1 (centres unmarked) [Compound 1.50]: 6.00 to 7.00
- Cc1cccc(-c2nc(CN3CCCCC3)[nH]c2-c2ccn3ncnc3c2)n1 [Compound 1.35]: 6.00 to 7.00
- Cc1cccc(-c2nc(CNC3CCCOC3)[nH]c2-c2ccc3ncnn3c2)n1 (centres unmarked) [Compound 1.15]: 7.00 to 8.00

Next item in the queue.
Prompt line: Name the reported pIC50 value associated with the molecule Cc1cccc(-c2nc(C3CCCCN3)[nH]c2-c2ccc3ncnn3c2)n1 (centres unmarked) [Compound 1.49]
Response line: 6.00 to 7.00

====

Below are IC50 values recorded for ALK5 (Homo sapiens).

The cases that follow already have their IC50 on record.
* Cc1cccc(-c2nc(CN3CCc4ccccc4C3)[nH]c2-c2ccn3ncnc3c2)n1 [Compound 1.40] | 100 to 1000 nM
* Cc1cccc(-c2nc(CNCc3cccc4ccccc34)[nH]c2-c2ccc3ncnn3c2)n1 [Compound 1.57] | 10 to 100 nM
* Cc1cccc(-c2nc(CN[C@@H]3c4ccccc4C[C@@H]3O)[nH]c2-c2ccc3ncnn3c2)n1 [Compound 1.44] | 100 to 1000 nM
* Cc1cccc(-c2nc(CN[C@H]3c4ccccc4C[C@@H]3O)[nH]c2-c2ccc3ncnn3c2)n1 [Compound 1.45] | 100 to 1000 nM
* Cc1cccc(-c2nc(CN[C@@H]3CCc4ccccc43)[nH]c2-c2ccc3ncnn3c2)n1 [Compound 1.30] | 100 to 1000 nM

Prompt line: Name the reported IC50 value associated with the compound Cc1cccc(-c2nc(CNC3CCCCC3)[nH]c2-c2ccc3ncnn3c2)n1 [Compound 1.12]
Response line: 100 to 1000 nM

====

Tested on: TGFb/SMAD Signaling Pathway SBE reporter cell line
Test: TGFb reporter assay (luciferase)
Assay type: cell-based
Settings: 5-6 h preincubation, then TGFb, 18 h, luminescence
pIC50: −log10 of the molar value.
assay_endpoint: pIC50

The cases that follow already have their pIC50 on record.
• Cc1cccc(-c2nc(CNC3CCc4ccccc43)[nH]c2-c2ccc3ncnn3c2)n1 (racemic) [Compound 1.26] = 7.00 to 8.00
• Cc1cccc(-c2nc(CN[C@@H]3c4ccccc4C[C@@H]3O)[nH]c2-c2ccc3ncnn3c2)n1 [Compound 1.44] = 7.00 to 8.00
• Cc1cccc(-c2nc(CNC3CC3)[nH]c2-c2ccc3ncnn3c2)n1 [Compound 1.7] = 6.00 to 7.00
• Cc1cccc(-c2nc(CNCC3CCCCC3)[nH]c2-c2ccc3ncnn3c2)n1 [Compound 1.42] = 7.00 to 8.00
• Cc1cccc(-c2nc(C3CNC3)[nH]c2-c2ccc3ncnn3c2)n1 [Compound 1.53] = 5.00 to 6.00
• Cc1cccc(-c2nc(C3CCN(C(=O)OC(C)(C)C)C3)[nH]c2-c2ccc3ncnn3c2)n1 (centres unmarked) [Compound 1.51] = 6.00 to 7.00

Prompt line: Name the reported pIC50 value associated with the compound Cc1cccc(-c2nc(CN3Cc4ccccc4C3=O)[nH]c2-c2ccc3ncnn3c2)n1 [Compound 1.56]
Response line: 7.00 to 8.00

Prompt line: Please answer likewise for Cc1cccc(-c2nc(CNC3CCCNC3)[nH]c2-c2ccn3ncnc3c2)n1 (centres unmarked) [Compound 1.38]
Response line: 5.00 to 6.00
